test system: UACC-257; assay: NCI tumour cell line growth inhibition, 48 h
Active and inactive are the calls of the source. Rule as the data show it: active = GI50 up to about 1.1 µM and inactive = higher.
readout: GI50

molecule | readout | value_observed
Cc1cc(C)c(/C=C2\C(=O)Nc3ccccc32)[nH]1 | GI50 | > 100 µM (inactive)
CCn1c(=O)c(C(=O)O)c(Cl)c2cc3c(cc21)OCO3 | GI50 | > 100 µM (inactive)
COc1cc(C(=O)C2CC3(CCC2(O)c2cc(OC)c(OC)c(OC)c2)CC(=O)Nc2ccccc2C3=O)cc(OC)c1OC (stereo not given) | GI50 | > 100 µM (inactive)
NC(=O)NC(=O)C1CCCCC1C(=O)O (stereo not given) | GI50 | > 100 µM (inactive)
O=C(Nc1ccc(S(=O)(=O)Nc2ncccn2)cc1)c1c2ccccc2nc2ccccc12 | GI50 | > 100 µM (inactive)
CC(CN1CCN(CC(C)Nc2ccnc3cc(Cl)ccc23)CC1)Nc1ccnc2cc(Cl)ccc12 (stereo not given) | GI50 | 19.4 µM (inactive)
O=C(O)C(Cc1cccs1)NC(=O)C(F)(F)F (stereo not given) | GI50 | > 100 µM (inactive)
COC(=O)C1=Cc2c(OC)cc(OC)c(OC)c2[C@H](c2cc(OC)c(OC)cc2OC)C1C(=O)OC (stereo not given in full) | GI50 | > 10 µM (inactive)

q: Provide one value: measured GI50 of COc1cc(OC2OC(CO)C(O)C(O)C2O)c2c(O)c3c(=O)cc(C)oc3cc2c1 (stereo not given)
a: > 100 µM (inactive)

q: Provide one value: measured GI50 of OCCN1CCN(CCO)Cc2ccccc2OCCOc2ccccc2C1
a: > 100 µM (inactive)
